Tested on: RXF 393
Procedure Details: NCI tumour cell line growth inhibition, 48 h
Calls of active or inactive are those of the source. Rule as the data show it: active = GI50 up to about 1.1 µM and inactive = higher.
Endpoint Label: GI50

Value wanted: GI50 (RXF 393) of entry CC(=O)[C@@]1(c2ccccc2)CC2(CCN(C)CC2)O[C@H]1C
> 100 µM (inactive)

Value wanted: GI50 (RXF 393) of entry NCCNC(=O)c1cccc2cc3ccccc3nc12
2.31 µM (inactive)

Value wanted: GI50 (RXF 393) of entry Cc1ccc(-c2cc(-c3ccc(Cl)cc3)nc(/N=C3\C(=O)N(CN4CCOCC4)c4ccc(Cl)cc43)n2)cc1
13.8 µM (inactive)

Value wanted: GI50 (RXF 393) of entry COc1ccc(OC)c(N2CC(N)C2=O)c1 (centres undefined)
> 100 µM (inactive)

Value wanted: GI50 (RXF 393) of entry C1CN2N3CCCC23C1 (centres undefined)
> 100 µM (inactive)

Value wanted: GI50 (RXF 393) of entry CCOC(=O)c1cn2c(n1)sc1cc([N+](=O)[O-])ccc12
> 100 µM (inactive)

Value wanted: GI50 (RXF 393) of entry CN(C)Cc1cc(/N=N/c2ccc(Cl)cc2)ccc1OC(=O)c1ccccc1
14.5 µM (inactive)

Value wanted: GI50 (RXF 393) of entry CN(C)c1ccc(C2CC(=O)CC(c3ccc(N(C)C)cc3)C23C(=O)NC(=S)NC3=O)cc1 (centres undefined)
45.7 µM (inactive)

Value wanted: GI50 (RXF 393) of entry COC1CC(OS(=O)(=O)c2ccc([N+](=O)[O-])cc2)C(OC(=O)c2ccccc2)C(C)O1 (centres undefined)
39.1 µM (inactive)

Value wanted: GI50 (RXF 393) of entry CC(C)Oc1cccc(N2C(n3ccnc3)=Nc3ccncc3S2(=O)=O)c1
14.7 µM (inactive)

Value wanted: GI50 (RXF 393) of entry c1ccc2c(c1)nnn2CNc1ccc(N2CCOCC2)cc1
> 100 µM (inactive)

Value wanted: GI50 (RXF 393) of entry Nc1nc(Cl)cc(OCC2(CO)CCCCC2)n1
63.7 µM (inactive)

Value wanted: GI50 (RXF 393) of entry O=C1NC2OCC(O)C(O1)C2O (centres undefined)
> 100 µM (inactive)

Value wanted: GI50 (RXF 393) of entry CC1=NC(=O)C(C)(c2ccccc2)N1CCc1ccccc1 (centres undefined)
24.7 µM (inactive)

Value wanted: GI50 (RXF 393) of entry O=C1CCC(=O)C(C(=O)CCC(=O)Nc2cccc(Cl)c2)C1 (centres undefined)
> 100 µM (inactive)

Value wanted: GI50 (RXF 393) of entry Clc1ccc2c(c1)CC1C[N+]3=C(CCCC3)C1=C2 (centres undefined)
> 100 µM (inactive)

Value wanted: GI50 (RXF 393) of entry CSc1c(C#N)c(O)n(-c2ccc(C)cc2)c(=O)c1C(C)=O
> 100 µM (inactive)

Value wanted: GI50 (RXF 393) of entry CC1=C(C)C2(C#N)C(=O)N3C(=NC(c4ccco4)NC3c3ccco3)C2(C#N)C(c2ccco2)N1 (centres undefined)
> 100 µM (inactive)

Value wanted: GI50 (RXF 393) of entry Nc1nc(Cl)cc(NCCCCCCCCCCNc2cc(Cl)nc(N)n2)n1
13.9 µM (inactive)

Value wanted: GI50 (RXF 393) of entry C=CC(=O)C#CC#CC/C=C\CCCCCCC
> 11.3 µM (inactive)

Value wanted: GI50 (RXF 393) of entry CS(=O)(=O)OCC1CN(S(C)(=O)=O)c2cc(O)ccc21 (centres undefined)
1.19 µM (inactive)

Value wanted: GI50 (RXF 393) of entry CCCCCCCCCCCC(=O)OCC(C[As](=O)(O)O)OC(=O)CCCCCCCCCCC (centres undefined)
2.43 µM (inactive)

Value wanted: GI50 (RXF 393) of entry O=C1/C(=C/c2ccc(Oc3ccccc3)cc2)N=C(c2ccccc2)N1c1ccc(S(=O)(=O)Nc2nccs2)cc1
17 µM (inactive)

Value wanted: GI50 (RXF 393) of entry CCOC(=O)c1ccc(C(=O)n2ccnc2)[nH]1
85.7 µM (inactive)
